- ASSAYED SYSTEM: human growth hormone secretagogue receptor (hGHS-R1a) (Homo sapiens)
- Construct: purchased PerkinElmer BioSignal #RBHGHSM, lot#1887; host or cells: HEK-293, stably transfected
- Sequence (Q92847 whole entry): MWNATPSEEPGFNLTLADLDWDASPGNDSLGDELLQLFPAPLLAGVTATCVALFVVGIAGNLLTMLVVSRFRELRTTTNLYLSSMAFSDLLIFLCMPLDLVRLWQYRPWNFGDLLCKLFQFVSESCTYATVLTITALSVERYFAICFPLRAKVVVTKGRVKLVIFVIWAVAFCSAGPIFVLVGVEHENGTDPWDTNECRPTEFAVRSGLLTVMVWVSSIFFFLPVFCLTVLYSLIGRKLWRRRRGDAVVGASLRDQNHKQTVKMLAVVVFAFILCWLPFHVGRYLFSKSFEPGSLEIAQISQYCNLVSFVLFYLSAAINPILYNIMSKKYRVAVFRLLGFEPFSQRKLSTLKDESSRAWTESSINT
- ASSAY PROTOCOL: Competitive radioligand binding assay (ghrelin receptor), [125I]-ghrelin displacement
- MEASUREMENT PARAMETERS: Table 4; binding at human ghrelin receptor; TFA salts unless otherwise noted; read-out: Ki
pKi: −log10 of the molar value.
MEASUREMENT NAME: pKi

Here's what some known entries look like.
CCC(C)C1NCCCc2ccccc2C=CCCNC(=O)C(Cc2ccccc2)NC(=O)C(C)N(C)C1=O (stereo not shown) [compound 191]	6.00 to 7.00
CCC(C)C1NCCOc2cccnc2CCCNC(=O)C(Cc2ccccc2)NC(=O)C(C)N(C)C1=O (stereo not shown) [compound 177]	7.00 to 8.00
C[C@H]1NC(=O)C2(CCCC2)NCCOc2ccccc2C=CCNC(=O)[C@H](Cc2cccc(Cl)c2)NC1=O (stereo in doubt) [compound 351]	7.00 to 8.00

Turning now to a further record.
(Q) Form field: reported pKi of CC1COc2ccccc2CCCNC(=O)C(Cc2ccc(F)cc2)NC(=O)C(C)N(C)C(=O)C(C2CC2)N1 (stereo not shown) [compound 394]
(A) 8.00 to 10.00

====

Please provide measured EC50 for the entries that follow.
- ASSAYED SYSTEM: human ghrelin receptor (hGHS-R1a) (Homo sapiens, UniProt Q92847)
- Sequence (Q92847 whole entry): as above
- ASSAY PROTOCOL: cell-based

CCC(C)C1NCCCc2ccccc2CCCCNC(=O)C(Cc2ccccc2)NC(=O)C(C)N(C)C1=O (centres unmarked) [compound 192]	100 to 1000 nM
CCC(C)C1NCCOc2ccccc2CCCNC(=O)C(Cc2ccc(-c3ccccc3)cc2)NC(=O)C(C)N(C)C1=O (centres unmarked) [compound 28]	1 to 100 nM
CCC(C)C1NCCOCC=CCCNC(=O)C(Cc2ccccc2)NC(=O)C(C)N(C)C1=O (centres unmarked) [compound 186]	100 to 1000 nM
CC1C(=O)NC(Cc2c(F)c(F)c(F)c(F)c2F)C(=O)NCCCc2ccccc2OCCNC(C2CC2)C(=O)N1C (centres unmarked) [compound 318]	1 to 100 nM
CCCC1NCCOc2ccccc2C=CCNC(=O)C(Cc2ccccc2)NC(=O)CN(C)C1=O (centres unmarked) [compound 11]	100 to 1000 nM

Take each entry in turn and give its EC50.
1. CCCCC1NCCOc2ccccc2CCCNC(=O)C(Cc2ccccc2)NC(=O)CN(C)C1=O (centres unmarked) [Compound 1]
2. CC(C)CC1NCCOc2ccccc2C=CCNC(=O)C(CC(C)C)NC(=O)C2(CCCC2)NC1=O (centres unmarked) [compound 47]
3. CCC(C)C1NCCOc2ccccc2CCCNC(=O)C(CC(C)C)NC(=O)C(C)N(C)C1=O (centres unmarked) [compound 176]

(A)
100 to 1000 nM
1 to 100 nM
1 to 100 nM
